- System: PRMT1 (protein arginine N-methyltransferase 1)
- ASSAY EXPLANATION: PRMT1 binders on small-molecule microarrays, primary screen, biochemical, small-molecule microarray, 635 nm fluorescence (AID 1088);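 also: binding of Prmt1 protein to compounds spotted on small-molecule microarray slides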
- ASSAY CONTEXT: small-molecule microarray binding, higher = more signal

| COMPOUND | composite z-score |
| --- | --- |
| Cn1cccc1C(O)C1C=CC2C(=O)NC(=O)C2N1Nc1ccccn1 (stereo unspecified) | 0.408 |
| C=CCC(OC(C)=O)[C@@H]1[C@@H](N(Cc2cc3ccccc3o2)C(=O)Cc2ccc(F)cc2)c2cc(OCCCO)ccc2N1C(=O)Cc1ccc(OC)cc1 (stereo partly specified) | -1.46 |
| O=C1C[C@@H](O)[C@@H](O)[C@@H]2[C@@H]3C(=O)N(Cc4ccc5c(c4)OCO5)C(=O)[C@@H]3CC[C@@H]12 | 0.555 |
| CN(C)CCCNC(=O)[C@@H]1c2ccccc2C(=O)N(Cc2ccccc2)[C@H]1c1ccc(CO)cc1 | 0.0881 |
| O=C1NC(=O)C2C1C=CC(C(O)Cc1ccccc1)N2Nc1ccccn1 (stereo unspecified) | 0.185 |
| COC(=O)[C@@]1(Cc2ccc(F)cc2)[C@@H]2C(=CC(=O)[C@H]2CC(=O)C(=O)N(C)C)CN1C(=O)c1ccccc1 | 1.14 |

###

Catalogue of molecules with associated composite z-score
- ASSAY EXPLANATION: small-molecule microarray binders of probe aWnt5a, primary screen, biochemical, biotinylated probe, 635/667 nm fluorescence (AID 1113);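 also: score merges 667 nm fluorescence intensity with signal-to-noise per printed feature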
- ASSAY CONTEXT: higher = more signal
QUANTITY: composite z-score

| SMI | MEAS VALUE |
| --- | --- |
| Cc1cc2c(c(=O)o1)[C@H](O)[C@H]1O[C@H]1C2=O | -0.208 |
| C=CCOC(=O)[C@H]1[C@@H]2C(=O)O[C@@H](c3ccccc3)[C@@H](c3ccccc3)N2[C@@H](c2ccc(OCCOC(=O)[C@H]3C[C@H]4C(=O)N[C@@H](Cc5ccccc5)C(=O)N4[C@H]3c3ccc(O)cc3)cc2)[C@]12C(=O)Nc1ccccc12 | -0.0735 |
| CO[C@@H]1COC(=O)CCC[C@@H](C)[C@H](OC)COC(=O)[C@H](Cc2ccccc2)NC(=O)CC=C[C@H]1C | -0.197 |

###

- Test system: XIP peptide (Xip251-270) binding
- ASSAY EXPLANATION: small-molecule binders of XIP peptide, primary screen, biochemical, small-molecule microarray, fluorescence 635/667 nm, 0.1 µg/mL protein (AID 1182)
- ASSAY CONTEXT: fluorescent protein binding, 635 nm, higher = more signal, called active from +8 up or from −8 down
composite z-score of 0.7 or higher: t. Under 0.7: f.

| MOLECULE | CLASS |
| --- | --- |
| O=C1[C@H]2[C@H]3[C@H](O)[C@H](O)CC(=NOC[C@@H](O)COCc4ccco4)[C@@H]3CC[C@H]2C(=O)N1c1ccc(F)cc1F | f |
| CCN1C(=O)[C@H]2[C@H]3[C@H](O)[C@H](O)CC(=NOCC=C(C)CCC=C(C)C)[C@H]3CC[C@H]2C1=O | t |
| CC(C)(C)N1CC=CC23O[C@@H]4C=CCCOC(=O)C4[C@H]2C(=O)N(CCCCCO)[C@@H]3C1=O (some centres undefined) | f |
| CCOC(=O)[C@H](Cc1ccccc1)NC(=O)CCC1CC(OC(=O)NCc2ccc3c(c2)OCO3)CC2(CCCC(COC(=O)NCC(c3ccccc3)c3ccccc3)O2)O1 (some centres undefined) | f |
| O=C1C[C@@H](O)[C@@H](O)[C@@H]2[C@@H]3C(=O)N(c4ccc(F)cc4F)C(=O)[C@@H]3CC[C@@H]12 | f |
| CCCC[C@H]1OB(O)C[C@H]2C1=C(C)C[C@H]1C(=O)N(C)C(=O)[C@H]12 | t |
| C#CCCCON=C1C[C@@H](O)[C@@H](O)[C@@H]2[C@@H]3C(=O)N(c4cccc(Oc5ccccc5)c4)C(=O)[C@@H]3CC[C@@H]12 | f |
| CC(C)CN1CCc2nc(-c3ccccc3)c3c(c2CC1)CO[C@@H](C)C3 | f |
| COc1ccc(OC[C@H]2Cc3c(-c4ccccc4)nc4c(c3CO2)CN(CCOc2ccccc2)CC4)cc1 | t |
| O=C1[C@H]2[C@H]3[C@H](O)[C@H](O)CC(=NO[C@@H]4O[C@H](CO)[C@@H](O)[C@H](O)[C@H]4O)[C@H]3CC[C@H]2C(=O)N1C1CCCCC1 | f |
| CN1C(=O)[C@@]2(CCC(=O)OC(C)(C)C)N=C(c3ccc(OCCCO)cc3)O[C@H]2c2ccccc21 | f |
| CO[C@@H]1COC(=O)CC=C[C@@H](C)[C@@H]2C=C[C@H](O)[C@@H](COC(=O)CCC[C@H]1C)O2 | f |
| C#CCCCON=C1C[C@@H](O)[C@@H](O)[C@@H]2[C@@H]3C(=O)N(Cc4ccccc4)C(=O)[C@@H]3CC[C@H]12 | f |
| CO[C@H]1O[C@H](CO)[C@@H](OC(=O)Nc2ccc(C#N)cc2)[C@H](OC(=O)c2cc3ccccc3[nH]2)[C@H]1OC(=O)c1cc2ccccc2[nH]1 | t |
| CC1CC/C=C\[C@H]2OC34C=CCN(C(C)C)C(=O)[C@H]3N(CCCO)C(=O)[C@@H]4C2C(=O)O1 (some centres undefined) | t |
| COc1cccc([C@@H]2Oc3ccc(Br)cc3C(=O)[C@H]2O)c1 | t |

###

- ASSAY EXPLANATION: compound binding in COS7 lysate, probe aLAP1, primary screen, cell lysate, small-molecule microarray (AID 1124);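 also: lysate comes from COS7 cells expressing LAP1 and is applied at 0.3 µg/mL; score merges spot fluorescence near 667 nm with signal-to-noise over triplicate slides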
- ASSAY CONTEXT: probe aLAP1, fluorescence, higher = more signal
The following compounds are shown together with reported composite z-score values.

| COMPOUND | composite z-score |
| --- | --- |
| COCCOC(=O)N1C(=O)[C@@]2(c3cc(C#CCNC(N)=O)ccc31)[C@H](c1ccccc1OCCO)N1[C@H](c3ccccc3)[C@H](c3ccccc3)OC(=O)[C@H]1[C@@H]2C(=O)N1CCN(c2ncccn2)CC1 | 0.579 |
| CCOC(=O)[C@H](CC(C)C)NC(=O)CCC1CC(OC(=O)NCc2cccc3ccccc23)CC2(CCCC(COC(=O)NCCN3CCOCC3)O2)O1 (some centres not stated) | 0.324 |
| CCOC(=O)CCN1C(=O)[C@H]2[C@H]3[C@H](O)[C@H](O)CC(=NOC[C@@H](O)COCc4ccco4)[C@@H]3CC[C@H]2C1=O | 0.256 |
| COC(=O)CC=C[C@@H](C)[C@H](OC)c1ccccc1Br | 0.1 |
| Cc1cc2c(nc1C)CCCN2CC(C)ON=C1[C@H]2CCn3c(=O)n(-c4ccccc4)c(=O)n3[C@H]2[C@H](O)[C@@H]2O[C@H]12 (some centres not stated) | 0.136 |
| C#C[C@@H]1Oc2ccccc2S(=O)(=O)N2CCC[C@H]12 | -0.34 |
| CC(CCC(=O)OC[C@H]1O[C@H](C#Cc2ccccc2)C=C[C@@H]1Oc1ccc(C)cc1)=NOC[C@@H](O)COCc1ccco1 | -0.547 |

###

z-score values for the molecules below.
- ASSAY EXPLANATION: yeast growth modulation, basal conditions, primary screen, YJM789 clinical isolate, OD600, 24 h (AID 1089);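 also: growth of clinical yeast isolate S. cerevisiae YJM 789 seeded 1000 cells per well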
- ASSAY CONTEXT: S. cerevisiae YJM789 growth, higher = more signal, called active from +8 up or from −8 down
QUANTITY: z-score

| MOLECULE | MEAS VALUE |
| --- | --- |
| C=CC[C@@H]1C=C[C@H](ON=C2c3cc(OC)ccc3O[C@H](c3cccc(OC)c3)[C@H]2O)[C@@H](CO)O1 | -0.39 |
| C=C(/C(=C/C[C@@H](OC(=O)c1ccncc1)c1ccc(OCCO)cc1)c1cnc2ccccc2c1)C(C)C | -24.8 |
| CCOC(=O)C[C@H]1[C@H](OC(=O)c2cc3ccccc3oc2=O)[C@@H](NC(=O)c2ccc3ccccc3n2)c2cc(OCCCO)ccc2N1C(=O)c1ccccc1 | 0.282 |
| O=C1[C@H]2[C@H]3[C@H](O)[C@H](O)CC(=NOC[C@@H](O)COCc4ccco4)[C@H]3CC[C@H]2C(=O)N1c1cccc(Oc2ccccc2)c1 | -0.19 |
| CCN(CC)c1ccc(N2CC=CC34O[C@@H]5/C=C\CCC(C)OC(=O)C5[C@H]3C(=O)N(CCCO)[C@@H]4C2=O)cc1 (stereo not given in full) | 0.664 |
| COC(=O)CC=C[C@@H](C)[C@@H](C=NO[C@@H](C)c1cc(-c2c(C)cc(C)cc2C)no1)OC | -0.0365 |
| C=C(CCCC)C(=O)CC[C@@H](OC(C)=O)c1cccc(OCCO)c1 | -24.3 |
| CO[C@H]1O[C@H](CO)[C@@H](OC(=O)Nc2ccc3c(c2)OCO3)[C@H](OC(=O)Nc2ccccc2-c2ccccc2)[C@@H]1OC(=O)Nc1ccccc1-c1ccccc1 | 2.12 |
| O=C1[C@H]2[C@H]3[C@H](O)[C@H](O)CC(=NOCc4ccccc4)[C@H]3CC[C@H]2C(=O)N1c1ccc(F)cc1F | -1.3 |
| C=CC[C@]1(C(=O)NCc2ccccc2)N=C(c2ccc(OCCCO)cc2)O[C@H]1c1ccccc1 | 0.159 |
| O=C1CCCC=C1C(O)CCOCc1ccccc1 (stereo not given) | -0.385 |
| C=CCNC(=O)[C@H]1[C@@H]2C(=O)O[C@@H](c3ccccc3)[C@@H](c3ccccc3)N2[C@@H](c2ccc(O)cc2)[C@]12C(=O)N(C(=O)OCCOC)c1ccc(C#CC3=CCCCC3)cc12 | 0.576 |
| CC[C@@H](c1ccccc1)n1c(=O)n2n(c1=O)[C@H]1[C@H](O)[C@@H]3O[C@@H]3C(=NOCC=C(C)CCC=C(C)C)[C@H]1CC2 | 0.676 |
| CCOC(=O)[C@H](Cc1ccccc1)NC(=O)CCC1CC(OC(=O)NCc2ccc3c(c2)OCO3)CC2(CCCC(COC(=O)NCC3CCCCC3)O2)O1 (stereo not given in full) | -0.827 |
| CC(=O)OC[C@H]1O[C@H](CCON=C[C@@H](C)[C@H](OCc2ccccc2)C(C)C)C=C[C@@H]1OC(C)=O | -0.283 |
| CC(CCC(=O)OC[C@H]1O[C@H](C#Cc2ccccc2)C=C[C@@H]1Oc1ccc(C)cc1)=NOC[C@@H](O)COCc1ccco1 | 0.594 |
| CO[C@H]1COC(=O)CC=C[C@H](C)[C@@H](NS(=O)(=O)c2ccc(C)cc2)COC(=O)CC=C[C@@H]1C | -3.93 |
| CCCNC(=O)OC[C@H]1O[C@H](CCON=CC[C@@H]2C=C[C@H](OC(C)=O)[C@@H](COC(C)=O)O2)C=C[C@@H]1Oc1ccc(OC)cc1 | -0.704 |
| COC(=O)[C@@H]1CC[C@H](C)[C@@H](c2ccc(C)cc2)N1C(=O)c1ccc(C=NOC[C@@H](O)COCc2ccco2)cc1 | -1.45 |
| C=CCC(OC(C)=O)[C@@H]1[C@@H](N(Cc2cc3ccccc3o2)C(=O)Cc2ccc(F)cc2)c2cc(OCCCO)ccc2N1C(=O)Cc1ccc(OC)cc1 (stereo not given in full) | -1.54 |
